# target or system: T1, CRBN, Q96SW2;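 note: pooled lentiviral library of zinc finger degron-EGFP fusions in mCherry-positive Jurkat cells, FACS-sorted after compound exposure, with degron abundance counted by next-generation sequencing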
# T1 chain: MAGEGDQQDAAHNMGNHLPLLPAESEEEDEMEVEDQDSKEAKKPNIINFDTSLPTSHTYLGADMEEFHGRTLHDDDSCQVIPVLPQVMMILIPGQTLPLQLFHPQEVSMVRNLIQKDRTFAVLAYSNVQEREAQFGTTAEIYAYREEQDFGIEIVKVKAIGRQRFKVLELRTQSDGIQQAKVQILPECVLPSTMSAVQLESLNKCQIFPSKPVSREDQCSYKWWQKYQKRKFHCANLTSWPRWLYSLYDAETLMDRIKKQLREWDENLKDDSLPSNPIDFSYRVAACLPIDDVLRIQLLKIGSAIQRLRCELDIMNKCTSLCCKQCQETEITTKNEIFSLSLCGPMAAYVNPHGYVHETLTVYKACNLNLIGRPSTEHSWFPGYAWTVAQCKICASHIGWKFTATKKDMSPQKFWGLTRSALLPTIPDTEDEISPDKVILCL
# assay text: log2 fold change of degron read counts, EGFP-low vs EGFP+ sorted cells (limma voom), compound-induced degradation; higher = more compound-induced degradation of the degron-EGFP fusion; degrons are variants of IKZF1/3 zinc finger 2; compound dose not given here
# test context: Jurkat; 18 h; compound: thalidomide
Whole data set: some 8,300 sequences, median “log2 fold change of degron read counts, EGFP-low vs EGFP+ sorted cells (limma voom), compound-induced degradation” near -1.1, cut for the highest 2% near 3.2. Many of the other results were omitted from the sample, so the highest values are more common in it than they were.

sequence chain | log2 fold change of degron read counts
FGCEICGANFTQKGNLLRHIKL [46F_47G_49E_50I_52G_53A_54N_55F_67L_, Q9UKT9] | 0.771
FTCEICGANFTQKGNLLRHIKL [46F_47T_49E_50I_52G_53A_54N_55F_67L_, Q9UKT9] | 2.43
FWCEICGANFTQKGNLLRHIKL [46F_47W_49E_50I_52G_53A_54N_55F_67L_, Q9UKT9] | 1.57
FLCEICGANFTQKGNLLRHIKL [46F_47L_49E_50I_52G_53A_54N_55F_67L_, Q9UKT9] | 1.75
FKCEICGANFTQKGNLLRHIKL [46F_47K_49E_50I_52G_53A_54N_55F_67L_, Q9UKT9] | -0.806
FFCEICGANFTQKGNLLRHIKL [46F_47F_49E_50I_52G_53A_54N_55F_67L_, Q9UKT9] | 1.6
FNCEICGANFTQKGNLLRHIKL [46F_47N_49E_50I_52G_53A_54N_55F_67L_, Q9UKT9] | -0.463
